target: full-length beta-Catenin (Uniprot ID P35222) (Homo sapiens, UniProt P35222); construct: 10 nM full-length beta-Catenin (Uniprot ID P35222); experiment: Fluorescence polarization IC50 (beta-catenin / 5FAM-TCF4 10-53 competition); assay type: binding; settings: read-out: beta-Catenin FP IC50; fluorescence polarization
MEASURED ENDPOINT: IC50 (nM)

- CC(=O)N1CCC[C@]12CC=CCCCC1(CCCC=CCCCOC(=O)N3CC[C@@](C(=O)N[C@@H](Cc4ccsc4)C(=O)N[C@@H](Cc4csc5ccccc45)C(=O)N[C@@H](CCC(N)=O)C(N)=O)(C3)NC(=O)[C@H](CC(C)C)NC(=O)[C@H](Cc3ccccc3)NC(=O)[C@H](C)NC(=O)[C@H](C)NC(=O)[C@H](CCC(=O)OCCSSc3ccccc3)NC(=O)[C@H](CC(=O)O)NC1=O)NC(=O)[C@H](CC(C)(C)C)NC(=O)[C@H](CC(=O)O)NC2=O (stereo partly shown) [I-1958]: 1540
- CC(=O)N1CCC[C@]12CC=CCCCC1(CCCC=CCCCOC(=O)N3CC[C@@](C(=O)N[C@@H](Cc4ccsc4)C(=O)N[C@@H](Cc4csc5ccccc45)C(=O)N[C@@H](CCC(N)=O)C(N)=O)(C3)NC(=O)[C@H](CC(C)C)NC(=O)[C@H](Cc3ccccc3)NC(=O)[C@H](C)NC(=O)[C@H](C)NC(=O)[C@H](CC(=O)O)NC(=O)[C@H](CC(=O)OCCSSc3ccccc3)NC1=O)NC(=O)[C@H](CC(C)(C)C)NC(=O)[C@H](CC(=O)O)NC2=O (stereo partly shown) [I-1954]: 994
- CC[C@H](C)[C@@H]1NC(=O)[C@H](CC(=O)O)NC(=O)[C@]2(CC=CCCCC3(CCCC=CCCCCCC[C@@](C)(C(=O)N[C@@H](Cc4ccccc4)C(=O)N[C@@H](Cc4csc5ccccc45)C(=O)N[C@@H](CCC(N)=O)C(N)=O)NC(=O)[C@H](CCC(N)=O)NC(=O)[C@H](Cc4ccccc4)NC(=O)[C@H](C)NC(=O)[C@H](C)NC(=O)[C@H](CCC(=O)O)NC(=O)[C@H](CC(=O)O)NC3=O)NC1=O)CCCN2C(=O)Cc1ccccc1 (stereo partly shown) [I-600]: 796
- CC(=O)N1CCC[C@]12CC=CCCCC1(CCCC=CCCCOC(=O)N3CC[C@@](C(=O)N[C@@H](Cc4ccsc4)C(=O)N[C@@H](Cc4csc5ccccc45)C(=O)N[C@@H](CCC(N)=O)C(N)=O)(C3)NC(=O)[C@H](CC(C)C)NC(=O)[C@H](Cc3ccccc3)NC(=O)[C@H](C)NC(=O)[C@H](C)NC(=O)[C@H](CC(=O)O)NC(=O)[C@H](CC(=O)O)NC1=O)NC(=O)[C@H](CC(C)(C)C)NC(=O)[C@H](CC(=O)OCCSSc1ccccc1)NC2=O (stereo partly shown) [I-1953]: 306

###

biological target: full-length beta-Catenin (Uniprot ID P35222) (Homo sapiens); construct: 10 nM full-length beta-Catenin (Uniprot ID P35222); test: Fluorescence polarization IC50 (beta-catenin / 5FAM-TCF4 10-53 competition); format: binding; conditions: fluorescence polarization; read-out: beta-Catenin FP IC50
MEASURED ENDPOINT: IC50 (nM)

- CC(=O)N1CCC[C@]12CC=CCCCC1(CCCC=CCCCOC(=O)N3CC[C@@](C(=O)N[C@@H](Cc4ccccc4Cl)C(=O)N[C@@H](Cc4csc5ccccc45)C(=O)N[C@H](CO)[C@@H](C)O)(C3)NC(=O)[C@H](Cc3ccccc3)NC(=O)[C@H](Cc3ccccc3)NC(=O)[C@H](C)NC(=O)[C@H](C)NC(=O)[C@H](CC(=O)O)NC(=O)[C@H](CC(=O)O)NC1=O)NC(=O)[C@H](CC(C)(C)C)NC(=O)[C@H](CC(=O)O)NC2=O (some centres unmarked) [I-1311]: 38
- CC(=O)N1CCC[C@]12CC=CCCCC1(CCCC=CCCCCCC[C@@](C)(C(=O)N[C@@H](Cc3ccccc3)C(=O)N[C@@H](Cc3csc4ccccc34)C(=O)N[C@@H](Cc3c[nH]cn3)C(N)=O)NC(=O)[C@H](CC(N)=O)NC(=O)[C@H](Cc3ccccc3)NC(=O)[C@H](C)NC(=O)[C@H](C)NC(=O)[C@H](CC(=O)O)NC(=O)[C@H](CC(=O)O)NC1=O)NC(=O)[C@H](CC(C)C)NC(=O)[C@H](CC(=O)O)NC2=O (some centres unmarked) [I-564]: 36

###

Target: beta-catenin/TCF4 engagement (Homo sapiens, UniProt P35222)
Construct: expressed in transfected cells; host or cells: HEK293
Sequence (P35222 1-781): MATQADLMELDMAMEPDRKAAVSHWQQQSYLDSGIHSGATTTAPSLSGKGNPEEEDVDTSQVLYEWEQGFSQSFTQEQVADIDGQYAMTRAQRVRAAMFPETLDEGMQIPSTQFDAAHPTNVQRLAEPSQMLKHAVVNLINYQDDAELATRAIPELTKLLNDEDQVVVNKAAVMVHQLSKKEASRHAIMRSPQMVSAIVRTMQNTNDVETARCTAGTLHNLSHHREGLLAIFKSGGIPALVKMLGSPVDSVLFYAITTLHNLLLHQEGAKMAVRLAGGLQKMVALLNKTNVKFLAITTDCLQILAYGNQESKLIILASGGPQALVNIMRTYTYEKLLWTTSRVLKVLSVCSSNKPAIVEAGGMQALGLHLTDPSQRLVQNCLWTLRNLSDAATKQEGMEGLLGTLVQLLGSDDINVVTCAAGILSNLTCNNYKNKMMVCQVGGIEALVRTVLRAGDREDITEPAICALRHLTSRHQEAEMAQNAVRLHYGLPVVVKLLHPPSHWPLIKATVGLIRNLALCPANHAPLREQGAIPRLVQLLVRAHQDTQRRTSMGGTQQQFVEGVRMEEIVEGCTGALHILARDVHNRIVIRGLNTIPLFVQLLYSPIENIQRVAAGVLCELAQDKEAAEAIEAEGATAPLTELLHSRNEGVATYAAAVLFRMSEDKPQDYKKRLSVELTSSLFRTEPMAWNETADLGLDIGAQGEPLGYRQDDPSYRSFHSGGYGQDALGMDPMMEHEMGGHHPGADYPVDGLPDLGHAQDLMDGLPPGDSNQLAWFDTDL
Experiment: Nano-BRET target engagement assay (B-cat-Halo & TCF4-Luc in HEK293 cells)
Assay type: cell-based
Conditions: absolute IC50; read-out: NanoBRET Abs IC50
MEASURED ENDPOINT: IC50 (µM)

- CC(=O)N1CCC[C@]12CC=CCCCC1(CCCC=CCCCOC(=O)N3CC[C@@](C(=O)N[C@@H](Cc4ccsc4)C(=O)N[C@@H](Cc4csc5ccccc45)C(=O)N[C@@H](CC(N)=O)C(=O)N[C@@H](C)C(=O)N[C@@H](CC(C)C)C(=O)N[C@@H](CC(C)C)C(N)=O)(C3)NC(=O)[C@H](CC(C)C)NC(=O)[C@H](Cc3ccccc3)NC(=O)[C@H](C)NC(=O)[C@H](C)NC(=O)[C@H](Cc3cccc(C(=O)O)c3)NC(=O)[C@H](CC(=O)O)NC1=O)NC(=O)[C@H](CC(C)(C)C)NC(=O)[C@H](CC(=O)O)NC2=O (some centres unmarked) [I-2278]: 2.8
- CC(=O)N1CCC[C@]12CC=CCCCC1(CCCC=CCCCOC(=O)N3CC[C@@](C(=O)N[C@@H](Cc4ccsc4)C(=O)N[C@@H](Cc4csc5ccccc45)C(=O)N[C@@H](CCC(N)=O)C(N)=O)(C3)NC(=O)[C@H](CC(C)C)NC(=O)[C@H](Cc3ccccc3)NC(=O)[C@H](C)NC(=O)[C@H](C)NC(=O)[C@H](CCN(CCCC(F)(F)F)CC(=O)O)NC(=O)[C@H](CC(=O)O)NC1=O)NC(=O)[C@H](CC(C)(C)C)NC(=O)[C@H](CC(=O)O)NC2=O (some centres unmarked) [I-1837]: 18.5

###

assay: Solubility in PBS; format: physicochemical; details: Solubility (uM)
hey, just use Condition met if measured Solubility is less than 30 µM, otherwise Condition not met

* CC(=O)N1CCC[C@]12CC=CCCCC1(CCCC=CCCCCCC[C@@](C)(C(=O)N[C@@H](Cc3ccccc3)C(=O)N[C@@H](Cc3csc4ccccc34)C(=O)N[C@@H](CCC(N)=O)C(N)=O)NC(=O)[C@H](CC(N)=O)NC(=O)[C@H](Cc3ccccc3)NC(=O)[C@H](C)NC(=O)[C@H](C)NC(=O)[C@H](CCC(=O)O)NC(=O)[C@H](CC(=O)O)NC1=O)NC(=O)[C@H](CC(C)(C)C)NC(=O)[C@H](CC(=O)O)NC2=O (stereo partly drawn) | Condition not met
* CC(=O)N1CCC[C@]12CC=CCCCC1(CCCC=CCCCOC(=O)N3CC[C@@](C(=O)N[C@@H](Cc4ccsc4)C(=O)N[C@@H](Cc4csc5ccccc45)C(=O)N[C@@H](Cc4c[nH]cn4)C(=O)N[C@@H](C)C(N)=O)(C3)NC(=O)[C@H](CC(N)=O)NC(=O)[C@H](Cc3ccccc3)NC(=O)[C@H](C)NC(=O)[C@H](C)NC(=O)[C@H](CC(=O)O)NC(=O)[C@H](CC(=O)O)NC1=O)NC(=O)[C@H](CC(C)(C)C)NC(=O)[C@H](CC(=O)O)NC2=O (stereo partly drawn) | Condition not met
* CC(=O)N1CCC[C@]12CC=CCCCC1(CCCC=CCCCOC(=O)N3CC[C@@](C(=O)N[C@@H](Cc4ccccc4Cl)C(=O)N[C@@H](Cc4csc5ccccc45)C(=O)N[C@@H](CCCCNC(C)C)C(N)=O)(C3)NC(=O)[C@H](CC(N)=O)NC(=O)[C@H](Cc3ccccc3)NC(=O)[C@H](C)NC(=O)[C@H](C)NC(=O)[C@H](CC(=O)O)NC(=O)[C@H](CC(=O)O)NC1=O)NC(=O)[C@H](CC(C)(C)C)NC(=O)[C@H](CC(=O)O)NC2=O (stereo partly drawn) | Condition met
* CC(=O)N1CCC[C@]12CC=CCCCC1(CCCC=CCCCOC(=O)N3CC[C@@](C(=O)N[C@@H](Cc4ccccc4Br)C(=O)N[C@@H](Cc4csc5ccccc45)C(=O)N[C@@H](CCC(N)=O)C(N)=O)(C3)NC(=O)[C@H](CC(N)=O)NC(=O)[C@H](Cc3ccccc3)NC(=O)[C@H](C)NC(=O)[C@H](C)NC(=O)[C@H](CC(=O)O)NC(=O)[C@H](CC(=O)O)NC1=O)NC(=O)[C@H](CC(C)(C)C)NC(=O)[C@H](CC(=O)O)NC2=O (stereo partly drawn) | Condition not met
* CC(=O)N1CCC[C@]12CC=CCCCC1(CCCC=CCCCOC(=O)N3CC[C@@](C(=O)N[C@@H](Cc4ccsc4)C(=O)N[C@@H](Cc4csc5ccccc45)C(=O)N[C@@H](C(N)=O)[C@H](C)O)(C3)NC(=O)[C@H](CC(N)=O)NC(=O)[C@H](Cc3ccccc3)NC(=O)[C@H](C)NC(=O)[C@H](C)NC(=O)[C@H](CC(=O)O)NC(=O)[C@H](CC(=O)O)NC1=O)NC(=O)[C@H](CC(C)(C)C)NC(=O)[C@H](CC(=O)O)NC2=O (stereo partly drawn) | Condition not met
* CC(=O)N1CCC[C@]12CC=CCCCC1(CCCC=CCCCOC(=O)N3CC[C@@](C(=O)N[C@@H](Cc4ccccc4C(N)=O)C(=O)N[C@@H](Cc4csc5ccccc45)C(=O)N[C@@H](CCC(N)=O)C(N)=O)(C3)NC(=O)[C@H](Cc3ccccc3)NC(=O)[C@H](Cc3ccccc3)NC(=O)[C@H](C)NC(=O)[C@H](C)NC(=O)[C@H](CC(=O)O)NC(=O)[C@H](CC(=O)O)NC1=O)NC(=O)[C@H](CC(C)(C)C)NC(=O)[C@H](CC(=O)O)NC2=O (stereo partly drawn) | Condition not met
* CC(=O)N1CCC[C@]12CC=CCCCC1(CCCC=CCCCOC(=O)N3CC[C@@](C(=O)N[C@@H](Cc4ccccc4Cl)C(=O)N[C@@H](Cc4csc5ccccc45)C(=O)N[C@@H](CO)C(N)=O)(C3)NC(=O)[C@H]([C@@H](C)O)NC(=O)[C@H](Cc3ccccc3)NC(=O)[C@H](C)NC(=O)[C@H](CC(C)C)NC(=O)[C@H](CC(=O)O)NC(=O)[C@H](CC(=O)O)NC1=O)NC(=O)[C@H](CC1CCCCC1)NC(=O)[C@H](CC(=O)O)NC2=O (stereo partly drawn) | Condition met
* CC(=O)N1CCC[C@]12CC=CCCCC1(CCCC=CCCCOC(=O)N3CC[C@@](C(=O)N[C@@H](Cc4ccccc4Cl)C(=O)N[C@@H](Cc4csc5ccccc45)C(=O)N[C@H](C(N)=O)[C@@H](C)O)(C3)NC(=O)[C@H]([C@@H](C)O)NC(=O)[C@H](Cc3ccccc3)NC(=O)[C@H](C)NC(=O)[C@H](CCCCNC(C)C)NC(=O)[C@H](CC(=O)O)NC(=O)[C@H](CC(=O)O)NC1=O)NC(=O)[C@H](CC(C)(C)C)NC(=O)[C@H](CC(=O)O)NC2=O (stereo partly drawn) | Condition not met
* CC(=O)N1CCC[C@]12CC=CCCCC1(CCCC=CCCCOC(=O)N3CC[C@@](C(=O)N[C@@H](Cc4ccsc4)C(=O)N[C@@H](Cc4c[nH]c5ccccc45)C(=O)N[C@@H](Cc4c[nH]cn4)C(N)=O)(C3)NC(=O)[C@H](CC(N)=O)NC(=O)[C@H](Cc3ccccc3)NC(=O)[C@H](C)NC(=O)[C@H](C)NC(=O)[C@H](CC(=O)O)NC(=O)[C@H](CC(=O)O)NC1=O)NC(=O)[C@H](CC(C)(C)C)NC(=O)[C@H](CC(=O)O)NC2=O (stereo partly drawn) | Condition not met
